# Tested on: XF 498 CNS
# ASSAY_SUMMARY: NCI tumour cell line growth inhibition, 48 h
Exercise: state measured TGI for each of the molecules provided.

Q) What value of TGI on XF 498 CNS does `Cc1cccc2c(=O)c([Se]c3coc4c(C)cccc4c3=O)coc12` have?
A) 34.8 µM

Q) Reported TGI for XF 498 CNS, given `CC(=O)[O][Ga]([Cl])[O]C(C)=O` ?
A) > 100 µM

Q) Find the measured TGI: item `O=C(O)CCCCCCC[C@H]1S[C@H]1CCCCCCO` , target or system XF 498 CNS.
A) > 100 µM

Q) For the record CCCCCC(=O)C(C)C1=Nc2nnc(CCCCCCCc3nnc4n3C(=O)C(C(C)C(=O)CCCCC)=N4)n2C1=O (stereo unspecified) , what value of TGI is listed for XF 498 CNS?
A) > 100 µM

Q) Which TGI is reported with XF 498 CNS for this entry: `O=C1c2ccccc2C(Br)(Br)c2ccccc21` ?
A) 97.8 µM

Q) Give recorded TGI with XF 498 CNS for the following molecule: `O=C1c2ccc(O)cc2C(=O)c2ccc(O)cc21`
A) > 100 µM

Q) Form entry - test system: XF 498 CNS; read-out: TGI; molecule: COC(=O)/C=C1/CCC(C(=O)OC)N1 (stereo unspecified)
A) > 100 µM

Q) Please provide the recorded TGI for CC(NC(=O)C(C)NC(=O)C(N)CCP(C)(=O)O)C(=O)O (stereo unspecified) , tested on XF 498 CNS.
A) > 100 µM

Q) Form field: TGI recorded for `c1cc(N(CCn2cccn2)CCn2cccn2)cc(N(CCn2cccn2)CCn2cccn2)c1` with XF 498 CNS (enter value)
A) > 100 µM

Q) For the record O=c1[nH]c(=O)n(C2OC(COP(=O)(O)OP(=O)(O)OC3OC(CO)C(O)C(O)C3O)C(O)C2O)cc1F (stereo unspecified) , what value of TGI is listed for XF 498 CNS?
A) 16.1 µM

Q) Lookup: TGI / XF 498 CNS / `C=C1C(=O)O[C@@H]2C[C@@H](C)[C@@H]3C=CC(=O)[C@@]3(C)[C@@H](OC(=O)CC(=O)O[C@H]3[C@@H]4C(=C)C(=O)O[C@@H]4C[C@@H](C)[C@@H]4C=CC(=O)[C@]43C)[C@H]12`
A) 0.05 µM

----------
Could you please report measured TGI for the items listed next?
# Test system: ACHN renal
# ASSAY_SUMMARY: NCI tumour cell line growth inhibition, 48 h
Only the number, expressed in µM, is required.

Q) Given the compound `CCCNNC(=O)/C=C/c1ccc(CNCCc2c(C)[nH]c3ccccc23)cc1` , what is its reported TGI?
A) 0.116

Q) May I ask what TGI has been recorded for `C#Cc1cccc(N2C(=O)CCC2=O)c1` ?
A) 30.6

Q) Give its TGI value. Item: `COc1cccc(-c2nc3sccn3c2-c2ccnc(NCCCNS(=O)(=O)c3cccc(F)c3)c2)c1`
A) 10.6

Q) Need TGI, item `CC(C)=CCc1c(OC(=O)c2c(C)cc(O)cc2O)cc(CO)c(CO)c1O`
A) 37.2

Q) GET /values?readout=TGI&item= COC(=O)[C@]1(c2cc3ccccc3n2S(=O)(=O)c2ccccc2)CC2CN(C(C)=O)C1CC2=O (some centres undefined)
A) 3.97

Q) Which TGI is reported for this compound? `C=C1C(=O)O[C@H]2[C@H]1CC/C(COC(=O)CSCCSCC(=O)OC/C1=C/CC[C@@]3(C)O[C@H]3[C@H]3OC(=O)C(=C)[C@@H]3CC1)=C\CC[C@@]1(C)O[C@@H]21`
A) 3.23

Q) Which TGI is reported for this compound? `C=C(c1ccc2nc(NC(=O)OC)[nH]c2c1)c1cccs1`
A) 7.47

Q) What does the data say about its TGI? Entry: CC[N+](CC)=c1sc2c(s1)C(c1ccc(Cl)cc1)Oc1ccc(Cl)cc1-2 (centres undefined)
A) 23.9

Q) Endpoint output: TGI of `O=C(/C=C/c1ccc(O)cc1)c1ccc2c(c1)OCO2` . Value?
A) 52.8

Q) Recorded TGI for `COc1ccc2c(c1)C(=O)c1c-2n(CCCN=[N+]=[N-])c(=O)c2cc(OC)c(OC)cc12` , please?
A) 25.8

----------
Can you tell me TGI for the items I'm about to list?
# Test system: HOP-92 NSCLC
# ASSAY_SUMMARY: NCI tumour cell line growth inhibition, 48 h
Give just the number in µM; leave the unit off.

Q) What does the data say about its TGI? Entry: `COc1cc(OC)cc(N(CCNC(C)C)c2ccc3ncc(-c4cnn(C)c4)nc3c2)c1`
A) 15.5

Q) Field request: TGI | item: `CC(=O)[CH-]C(C)=O.CC(=O)[CH-]C(C)=O.[CH2-]CCC.[CH2-]CCC.[Sn+4]`
A) 1.25

Q) Recorded TGI for `COC(=O)c1c2c(c[n+]([O-])c1C)C(=O)C=CC2=O` , please?
A) 9.06

Q) Quick check: TGI of `Cc1ccsc1/C=N/Nc1nc2ccccc2s1` ?
A) 49.5

Q) Entry under review: `[N-]=[N+]=C1N=CN=C1c1ncn[nH]1` . Reported TGI?
A) 45

----------
# System: NCI-H226 lung
# ASSAY_SUMMARY: NCI tumour cell line growth inhibition, 48 h
Our labelling divides records by TGI into ranges: bucket 1: < 4 µM; bucket 2: ≥ 4 µM and < 20 µM; bucket 3: ≥ 20 µM

Q) Assign a category based on measured TGI for N#CC1=C(N)n2c(s/c(=C\c3ccc(Cl)cc3)c2=O)=C(c2nc3ccccc3[nH]2)C1c1ccc(Cl)cc1 (stereo not given) and give only the class name.
A) bucket 1

Q) Input `C=C1C(=O)O[C@@H]2C[C@@H](C)[C@@H]3C=CC(=O)[C@@]3(C)[C@@H](OC(=O)CC(=O)O[C@H]3[C@@H]4C(=C)C(=O)O[C@@H]4C[C@@H](C)[C@@H]4C=CC(=O)[C@]43C)[C@H]12` ; output its category
A) bucket 1

Q) State the band of `Cc1cc(S(=O)(=O)Nc2nc3cscc3c(=O)n2Cc2ccccc2)c(S)cc1Cl`
A) bucket 3

Q) For this molecule, which bin applies? `COC(=O)/C=C\n1c(C)cc(=O)[nH]c1=O`
A) bucket 3

Q) Classify this molecule: Nc1ccccc1C(=O)CC1OC(=O)c2ccccc21 (stereo not given)
A) bucket 3

Q) For the record `COc1cc2c(c(OC)c1OC)-c1ccc(SC)c(=O)cc1[C@@H](NCc1ccc(C#N)cc1)CC2` , report the class its TGI corresponds to.
A) bucket 1

Q) # classify by TGI band: `Cc1c(Cl)nc(Nc2nc3ccccc3[nH]2)nc1Cl`
A) bucket 3

Q) Which category does the recorded TGI put `[N-]=[N+]=C1N=CN=C1c1ncn[nH]1` in?
A) bucket 3

Q) Class (by measured TGI) for `O=S(=O)(c1ccccc1)n1c2ccc(Br)cc2c2nc3ccccc3nc21`
A) bucket 3

Q) Bin? `C[C@]12CCC(=O)C=C1CC[C@@H]1[C@@H]2[C@@H](O)C[C@@]2(C)[C@H]1CC[C@]2(O)C(=O)COC(=O)COCC(=O)O`
A) bucket 3

Q) For this molecule, which bin applies? `Cc1nc(SCC(=O)Nc2nc(-c3ccc(Cl)cc3)cs2)n(Nc2ccccc2)c1C`
A) bucket 2

Q) Categorize the following entry: `O=C(/C=C/c1ccc(O)c(O)c1)OCCCc1ccccc1`
A) bucket 3

Q) Please classify: `Cc1ccc(-c2csc(/N=C3\C(=O)Nc4ccccc43)n2)cc1`
A) bucket 1

Q) Place this molecule in its band: CN1CCCC2(CCCc3ccccc32)C1 (stereo not given)
A) bucket 3

Q) Determine which band this molecule sits in: `CCOC(=O)N1CCN(c2nc(Nc3cc(C)[nH]n3)c3ccccc3n2)CC1`
A) bucket 2

Q) Which class does `COc1ccc(/C=N/n2cnc3c(sc(=S)n3-c3ccccc3)c2=O)cc1` fall in?
A) bucket 3

Q) Each molecule maps to one class by TGI. Which class for `Cc1[nH]c2c(c1C)S(=O)(=O)c1cc3ccccc3nc1N2` ?
A) bucket 3

Q) Exercise: read the entry COC(=O)[C@]1(c2cc3ccccc3n2S(=O)(=O)c2ccccc2)CC2CN(C(C)=O)C1CC2=O (stereo not given in full) and state which class it falls under.
A) bucket 2

Q) Please indicate the class for `Cc1ccc(N=N/C(=N\NC(=O)c2ccc(C)cc2)c2ccc(N(CCC#N)CCC#N)cc2C)cc1` based on its TGI.
A) bucket 3

Q) Any idea which band `COc1ccc(Nc2nc3ccc(C(F)(F)F)cc3nc2-c2ccccc2)cc1OC` is in?
A) bucket 3

----------
Could you please report measured GI50 for the items listed next?
# Test system: 786-0 renal
# ASSAY_SUMMARY: NCI tumour cell line growth inhibition, 48 h

Q) Can you share its GI50? I mean this compound: `COc1ccc(S(=O)(=O)N2CC(C)(C)CN(S(=O)(=O)c3ccc(OC)cc3)C2C(=O)NO)cc1`
A) > 20 µM

Q) # lookup: GI50 of `COc1ccc(-c2cc(=O)c3ccc(C)nc3[nH]2)cc1`
A) > 100 µM

Q) Fill in the blank: the reported GI50 of `COC(=O)c1c2c(c[n+]([O-])c1C)C(=O)C=CC2=O` is ____.
A) 2.56 µM

Q) Please report the recorded GI50 for `CCN(Cc1cccc(F)c1)c1ccc(CO)c(Cl)c1` .
A) 10.5 µM

Q) // returns reported GI50 for input `COc1ccc2c(c1)C(=O)c1c-2n(CCCN=[N+]=[N-])c(=O)c2cc(OC)c(OC)cc12`
A) 26.7 µM

Q) Value lookup for GI50; key = `CCOc1ccc2nc(SCc3nc4n(n3)S(=O)(=O)c3ccccc3N4C)sc2c1`
A) > 100 µM

Q) Recorded GI50 for `Cc1ccc(-c2csc(/N=C3\C(=O)Nc4ccccc43)n2)cc1` , please?
A) 1.63 µM

Q) Field request: GI50 | item: `CCC[CH2][Sn]([CH2]CCC)([CH2]CCC)[O]c1ccc(Cl)cc1Cl`
A) 0.135 µM

Q) Can you share its GI50? I mean this compound: `CC(C)(C)C(=O)c1c(C(F)(F)F)n([O-])c2ccccc2[n+]1=O`
A) 0.729 µM

Q) Data request, read-out GI50, for `S=C(Nc1ccc(Br)cc1)Nc1ccc(Br)cc1`
A) 38.5 µM

Q) Reported GI50 for `Cc1nn(-c2nc3ccccc3[nH]2)c(N)c1-c1ccc(Cl)cc1` : what is it?
A) 8.31 µM

Q) Param item = `COc1cc(C#Cc2ccc(=O)oc2C#Cc2ccccc2)cc(OC)c1OC` ; retrieve measured GI50.
A) 3.39 µM

Q) State the recorded GI50 for this entry: `COC(=O)CCc1c[nH]c2ccc(N(CCCl)CCCl)cc12`
A) 0.856 µM

Q) Which GI50 value is on record for `COc1cc(-c2cc3ncccc3c3nc(N)c4cccnc4c23)cc(OC)c1OC` ?
A) 0.511 µM

Q) So what's the measured GI50 for this one? `COc1cccc(-c2nc3sccn3c2-c2ccnc(NCCCNS(=O)(=O)c3cccc(F)c3)c2)c1`
A) 4.49 µM

Q) Bench note: what GI50 did `CCOC(=O)N1CCN(c2nc(Nc3cc(C)[nH]n3)c3ccccc3n2)CC1` show?
A) 1.95 µM

Q) Quick one: GI50 for `CN(C)CCCNC(=O)c1cc(NC(=O)c2cc(NC(=O)CCc3c[nH]c4ccccc34)cn2C)cn1C` ?
A) > 100 µM

Q) Need GI50, item `CN(C)CCCOc1ccc(-c2ccc3ncc4c(c3c2)n(C2CCOCC2)c(=O)n4C)cn1`
A) 1.74 µM
